Tested on: Hs578T multi-cell spheroids, viability
Assay: Anticancer human tumor Hs578T cell line growth inhibition [IpAb];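 note: drug exposure lasted 7 days before readout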
Settings: second compound 0.1 µM; first compound 0.316 µM; stronger effect = lower value
Cut-off 90% on viability, T/C: below means true (1), at or above means false (0).

Find out if reported viability, T/C for COc1c(OCCCN2CCOCC2)ccc2c3n(c(=NC(=O)c4cnc(N)nc4)nc12)CCN3 + CCN1CCN(Cc2ccc(Nc3ncc(F)c(-c4cc(F)c5nc(C)n(C(C)C)c5c4)n3)nc2)CC1 is less than 90%
true (1)

Find out if reported viability, T/C for C=CC(=O)N1CCN(c2nc(=O)n(-c3c(C)ccnc3C(C)C)c3nc(-c4c(O)cccc4F)c(F)cc23)C(C)C1 (stereo unspecified) + CC(C)NCC(C(=O)N1CCN(c2ncnc3c2C(C)CC3O)CC1)c1ccc(Cl)cc1 is less than 90%
false (0)

Find out if reported viability, T/C for C=CCn1c(=O)c2cnc(Nc3ccc(N4CCN(C)CC4)cc3)nc2n1-c1cccc(C(C)(C)O)n1 + CCN1CCN(Cc2ccc(Nc3ncc(F)c(-c4cc(F)c5nc(C)n(C(C)C)c5c4)n3)nc2)CC1 is less than 90%
true (1)

Find out if reported viability, T/C for Cn1nccc1Nc1nccc(-c2ccn(C(CO)c3ccc(Cl)c(F)c3)c(=O)c2)n1 (stereo unspecified) + CC(C)NCC(C(=O)N1CCN(c2ncnc3c2C(C)CC3O)CC1)c1ccc(Cl)cc1 is less than 90%
false (0)

Find out if reported viability, T/C for CCCS(=O)(=O)Nc1ccc(F)c(C(=O)c2c[nH]c3ncc(-c4ccc(Cl)cc4)cc23)c1F + CCN1CCN(Cc2ccc(Nc3ncc(F)c(-c4cc(F)c5nc(C)n(C(C)C)c5c4)n3)nc2)CC1 is less than 90%
true (1)

Find out if reported viability, T/C for C=CC(=O)N1CCN(c2nc(=O)n(-c3c(C)ccnc3C(C)C)c3nc(-c4c(O)cccc4F)c(F)cc23)C(C)C1 (stereo unspecified) + CCN1CCN(Cc2ccc(Nc3ncc(F)c(-c4cc(F)c5nc(C)n(C(C)C)c5c4)n3)nc2)CC1 is less than 90%
false (0)

Find out if reported viability, T/C for Cn1ncc(Cl)c1-c1cc(C(=O)NC(CN)Cc2cccc(F)c2)sc1Cl (stereo unspecified) + CCN1CCN(Cc2ccc(Nc3ncc(F)c(-c4cc(F)c5nc(C)n(C(C)C)c5c4)n3)nc2)CC1 is less than 90%
true (1)

Find out if reported viability, T/C for Cn1ncc(Cl)c1-c1cc(C(=O)NC(CN)Cc2cccc(F)c2)sc1Cl (stereo unspecified) + CC(C)NCC(C(=O)N1CCN(c2ncnc3c2C(C)CC3O)CC1)c1ccc(Cl)cc1 is less than 90%
true (1)

Find out if reported viability, T/C for COc1c(OCCCN2CCOCC2)ccc2c3n(c(=NC(=O)c4cnc(N)nc4)nc12)CCN3 + CC(C)NCC(C(=O)N1CCN(c2ncnc3c2C(C)CC3O)CC1)c1ccc(Cl)cc1 is less than 90%
true (1)

Find out if reported viability, T/C for Cc1nc(NC(=O)N2CCCC2C(N)=O)sc1-c1ccnc(C(C)(C)C(F)(F)F)c1 (stereo unspecified) + CC(C)NCC(C(=O)N1CCN(c2ncnc3c2C(C)CC3O)CC1)c1ccc(Cl)cc1 is less than 90%
true (1)

---

Test system: Hs578T multi-cell spheroids, viability
Test: Anticancer human tumor Hs578T cell line growth inhibition [IpAb];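 note: drug exposure lasted 7 days before readout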
Conditions: second compound 10 µM; first compound 0.1 µM; stronger effect = lower value
Cut-off 40% on viability, T/C: below means yes (1), at or above means no (0).

Find out if reported viability, T/C for COc1c(OCCCN2CCOCC2)ccc2c3n(c(=NC(=O)c4cnc(N)nc4)nc12)CCN3 + CC(C)NCC(C(=O)N1CCN(c2ncnc3c2C(C)CC3O)CC1)c1ccc(Cl)cc1 is less than 40%
yes (1)

Find out if reported viability, T/C for C=CC(=O)N1CCN(c2nc(=O)n(-c3c(C)ccnc3C(C)C)c3nc(-c4c(O)cccc4F)c(F)cc23)C(C)C1 (stereo not given) + CC(C)NCC(C(=O)N1CCN(c2ncnc3c2C(C)CC3O)CC1)c1ccc(Cl)cc1 is less than 40%
no (0)

Find out if reported viability, T/C for CCCS(=O)(=O)Nc1ccc(F)c(C(=O)c2c[nH]c3ncc(-c4ccc(Cl)cc4)cc23)c1F + CC(C)NCC(C(=O)N1CCN(c2ncnc3c2C(C)CC3O)CC1)c1ccc(Cl)cc1 is less than 40%
no (0)

Find out if reported viability, T/C for CC(C)n1nc(-c2ccc3oc(N)nc3c2)c2c(N)ncnc21 + CC(C)NCC(C(=O)N1CCN(c2ncnc3c2C(C)CC3O)CC1)c1ccc(Cl)cc1 is less than 40%
yes (1)

Find out if reported viability, T/C for CC1(C)CCC(CN2CCN(c3ccc(C(=O)NS(=O)(=O)c4ccc(NCC5CCOCC5)c([N+](=O)[O-])c4)c(Oc4cnc5[nH]ccc5c4)c3)CC2)=C(c2ccc(Cl)cc2)C1 + CC(C)NCC(C(=O)N1CCN(c2ncnc3c2C(C)CC3O)CC1)c1ccc(Cl)cc1 is less than 40%
no (0)

Find out if reported viability, T/C for Cc1nc(NC(=O)N2CCCC2C(N)=O)sc1-c1ccnc(C(C)(C)C(F)(F)F)c1 (stereo not given) + CC(C)NCC(C(=O)N1CCN(c2ncnc3c2C(C)CC3O)CC1)c1ccc(Cl)cc1 is less than 40%
no (0)

Find out if reported viability, T/C for Cn1nccc1Nc1nccc(-c2ccn(C(CO)c3ccc(Cl)c(F)c3)c(=O)c2)n1 (stereo not given) + CC(C)NCC(C(=O)N1CCN(c2ncnc3c2C(C)CC3O)CC1)c1ccc(Cl)cc1 is less than 40%
no (0)

Find out if reported viability, T/C for Cn1ncnc1[C@H]1c2n[nH]c(=O)c3cc(F)cc(c23)N[C@@H]1c1ccc(F)cc1 + CC(C)NCC(C(=O)N1CCN(c2ncnc3c2C(C)CC3O)CC1)c1ccc(Cl)cc1 is less than 40%
yes (1)

Find out if reported viability, T/C for Cn1ncc(Cl)c1-c1cc(C(=O)NC(CN)Cc2cccc(F)c2)sc1Cl (stereo not given) + CC(C)NCC(C(=O)N1CCN(c2ncnc3c2C(C)CC3O)CC1)c1ccc(Cl)cc1 is less than 40%
no (0)

Find out if reported viability, T/C for C=CCn1c(=O)c2cnc(Nc3ccc(N4CCN(C)CC4)cc3)nc2n1-c1cccc(C(C)(C)O)n1 + CC(C)NCC(C(=O)N1CCN(c2ncnc3c2C(C)CC3O)CC1)c1ccc(Cl)cc1 is less than 40%
yes (1)

---

Tested on: Hs578T multi-cell spheroids, viability
Assay: Anticancer human tumor Hs578T cell line growth inhibition [IpAb];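 note: drug exposure lasted 7 days before readout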
Details: second compound 0.0316 µM; first compound 0.1 µM; stronger effect = lower value
READOUT LABEL: viability, T/C (%)
Reply numerically in %, unit not repeated.

# viability, T/C lookup, item CC(C)n1nc(-c2ccc3oc(N)nc3c2)c2c(N)ncnc21 + CCN1CCN(Cc2ccc(Nc3ncc(F)c(-c4cc(F)c5nc(C)n(C(C)C)c5c4)n3)nc2)CC1
14.9

# viability, T/C lookup, item COc1c(OCCCN2CCOCC2)ccc2c3n(c(=NC(=O)c4cnc(N)nc4)nc12)CCN3 + CCN1CCN(Cc2ccc(Nc3ncc(F)c(-c4cc(F)c5nc(C)n(C(C)C)c5c4)n3)nc2)CC1
28

# viability, T/C lookup, item Cn1nccc1Nc1nccc(-c2ccn(C(CO)c3ccc(Cl)c(F)c3)c(=O)c2)n1 (stereo not drawn) + CCN1CCN(Cc2ccc(Nc3ncc(F)c(-c4cc(F)c5nc(C)n(C(C)C)c5c4)n3)nc2)CC1
99.8

---

For each record, write down the corresponding IC50.
System: Hs578T multi-cell spheroids, viability
Experiment: Anticancer human tumor Hs578T cell line growth inhibition [IpAb];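 note: drug exposure lasted 7 days before readout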
Conditions: curve of first compound; second compound 0.0316 µM
Protocol: Combinatorial screen of targeted agents with ipatasertib and abemaciclib in multi-cell type tumor spheroids […] Compounds. […] If the clinical Cmax for an agent had not been determined, the highest concentration tested was 10 microM. NCI60 Cell Culture. […] The optimal seeding densities for each of the cell lines at each time point assessed were determined prior to performing the concentration response studies. […]

# IC50 lookup, item CCCS(=O)(=O)Nc1ccc(F)c(C(=O)c2c[nH]c3ncc(-c4ccc(Cl)cc4)cc23)c1F + CCN1CCN(Cc2ccc(Nc3ncc(F)c(-c4cc(F)c5nc(C)n(C(C)C)c5c4)n3)nc2)CC1
4190 nM

# IC50 lookup, item Cn1ncc(Cl)c1-c1cc(C(=O)NC(CN)Cc2cccc(F)c2)sc1Cl (stereo not given) + CCN1CCN(Cc2ccc(Nc3ncc(F)c(-c4cc(F)c5nc(C)n(C(C)C)c5c4)n3)nc2)CC1
1330 nM

# IC50 lookup, item C=CC(=O)N1CCN(c2nc(=O)n(-c3c(C)ccnc3C(C)C)c3nc(-c4c(O)cccc4F)c(F)cc23)C(C)C1 (stereo not given) + CCN1CCN(Cc2ccc(Nc3ncc(F)c(-c4cc(F)c5nc(C)n(C(C)C)c5c4)n3)nc2)CC1
> 10000 nM

# IC50 lookup, item CC(C)n1nc(-c2ccc3oc(N)nc3c2)c2c(N)ncnc21 + CCN1CCN(Cc2ccc(Nc3ncc(F)c(-c4cc(F)c5nc(C)n(C(C)C)c5c4)n3)nc2)CC1
5.53 nM

# IC50 lookup, item Cn1cnc2c(F)c(Nc3ccc(Br)cc3Cl)c(C(=O)NOCCO)cc21 + CCN1CCN(Cc2ccc(Nc3ncc(F)c(-c4cc(F)c5nc(C)n(C(C)C)c5c4)n3)nc2)CC1
2000 nM
